# TEST NAME: recombinant barcode read abundance after kanamycin selection (control-corrected) (log10(CPM+1)); higher = more efficient recombination; sequences stand for … in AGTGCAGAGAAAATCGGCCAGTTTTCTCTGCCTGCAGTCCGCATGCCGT…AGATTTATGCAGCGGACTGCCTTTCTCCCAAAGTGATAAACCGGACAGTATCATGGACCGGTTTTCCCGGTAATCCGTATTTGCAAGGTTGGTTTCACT; site = the 11-nt target
Threshold check on recombinant barcode read abundance (log10): at or above 0.07 gives label 1, strictly below gives label 0.

| SEQUENCE INPUT | LABEL CLASS |
| --- | --- |
| AATCTGTCTTGGGTTCTAACCTGTTGCGT (site AATCTGTCTAC) | label 1 |
| CGACGTACTTGGGTTCTAACCTGTTGCCT (site CGTCGTACTAG) | label 0 |
| TCTTGTCCTTGGGTTCTAACCTGTTGCGT (site TCTTGTCCTAC) | label 1 |
| TAGGAACCTTGGGTTCTAACCTGTTGCCT (site TAGGAACCTAG) | label 1 |
| ATCGGGCCTTGGGTTCTAACCTGTTGCCT (site TTCGGGCCTAG) | label 1 |
| CTTAGGACTTGGGTTCTAACCTGTTGCCT (site CTTAGGACTTG) | label 0 |
| TTGGCCACTTGGGTTCTAACCTGTTGCCT (site TTGGGCACTAG) | label 1 |
| TAGATCGCTTGGGTTCTAACCTGTTGCAG (site TAGGTCGCTAT) | label 1 |

stdin: Evaluate GAAGTCGCTTGGGTTCTAACCTGTTGCCT (site GAAGGCGCTAG) : recombinant barcode read abundance (log10) at minimum 0.07?
stdout: label 0

stdin: Evaluate GATGAGACTTGGGTTCTAACCTGTTGCCG (site GATGAGACTCG) : recombinant barcode read abundance (log10) at minimum 0.07?
stdout: label 1

stdin: Evaluate TGGTATGCTTGGGTTCTAACCTGTTGCCT (site TGGTATTCTAG) : recombinant barcode read abundance (log10) at minimum 0.07?
stdout: label 0

stdin: Evaluate GATACGTCTTGGGTTCTAACCTGTTGCCT (site GATACGCCTAG) : recombinant barcode read abundance (log10) at minimum 0.07?
stdout: label 1

stdin: Evaluate CTATCCACTTGGGTTCTAACCTGTTGCCT (site CTGTCGACTAG) : recombinant barcode read abundance (log10) at minimum 0.07?
stdout: label 1

stdin: Evaluate GAGCCACCTTGGGTTCTAACCTGTTGCCT (site GAGCCACCTAG) : recombinant barcode read abundance (log10) at minimum 0.07?
stdout: label 1

stdin: Evaluate GCTGGGTCTTGGGTTCTAACCTGTTGCTT (site GCTGGGTCTAA) : recombinant barcode read abundance (log10) at minimum 0.07?
stdout: label 1

stdin: Evaluate TGTTCTTCTTGGGTTCTAACCTGTTGCCT (site TGTTCATCTAG) : recombinant barcode read abundance (log10) at minimum 0.07?
stdout: label 0

stdin: Evaluate GTGCTAACTTGGGTTCTAACCTGTTGCCA (site GTGCTAACTTG) : recombinant barcode read abundance (log10) at minimum 0.07?
stdout: label 1

stdin: Evaluate AGCCGCCCTTGGGTTCTAACCTGTTGCAT (site AGCCGCCCTAT) : recombinant barcode read abundance (log10) at minimum 0.07?
stdout: label 1

* * *

# TEST NAME: recombinant barcode read abundance after kanamycin selection (control-corrected) (log10(CPM+1)); higher = more efficient recombination; sequences stand for … in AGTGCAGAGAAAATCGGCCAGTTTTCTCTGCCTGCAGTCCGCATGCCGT…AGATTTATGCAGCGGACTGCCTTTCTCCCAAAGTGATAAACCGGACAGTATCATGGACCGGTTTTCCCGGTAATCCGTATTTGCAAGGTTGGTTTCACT; site = the 11-nt target
MEASURED METRIC: recombinant barcode read abundance (log10)
Numbers only.

Hello, I would appreciate it if you could give recombinant barcode read abundance (log10) for each entry below.
1. CTAACCTCTTGGGTTCTAACCTGTTGCTA (site CTAACCTCTTA)
2. TCCGTCCCTTGGGTTCTAACCTGTTGCAT (site TCCGACCCTGT)
3. TCGAACCCTTGGGTTCTAACCTGTTGCGA (site TCGTACCCTTC)
4. GACACAACTTGGGTTCTAACCTGTTGCCA (site GACACAACTTG)
5. CATTGGACTTGGGTTCTAACCTGTTGCTT (site GATTGGACTAA)
6. TAGACTACTTGGGTTCTAACCTGTTGCTT (site TAGACTACTCA)
7. TACTTGCCTTGGGTTCTAACCTGTTGCCT (site TAGTTGCCTAG)

stdout:
1. 1.42
2. 0.0832
3. 0.0144
4. 0.018
5. 0.023
6. 0.0933
7. 0.653

* * *

# TEST NAME: recombinant barcode read abundance after kanamycin selection (control-corrected) (log10(CPM+1)); higher = more efficient recombination; sequences stand for … in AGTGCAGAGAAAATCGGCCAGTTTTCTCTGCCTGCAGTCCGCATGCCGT…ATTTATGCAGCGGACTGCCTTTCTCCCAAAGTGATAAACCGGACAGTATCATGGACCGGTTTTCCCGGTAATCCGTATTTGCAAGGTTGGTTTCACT; site = the 11-nt target
Threshold check on recombinant barcode read abundance (log10): at or above 0.1 gives met, strictly below gives not met.

| SEQUENCE INPUT | LABEL CLASS |
| --- | --- |
| TCGCGACCTTGGGTTCTAACCTGTTGCCGGA [TCGCGACCTCG_LTGcore_CT_RTGcore_TC] (site TCGCGACCTCG) (LTG core: CT, RTG core: TC) | met |
| TGTATTCCTTGGGTTCTAACCTGTTGCCTGA [TGTATTCCTAG_LTGcore_CT_RTGcore_TC] (site TGTATTCCTAG) (LTG core: CT, RTG core: TC) | not met |

stdin: Evaluate ATGCTTTGCTGGGTTCTAACCTGTTGCCTGC [ATGCTTTCTAG_LTGcore_GC_RTGcore_GC] (site ATGCTTTCTAG) (LTG core: GC, RTG core: GC) : recombinant barcode read abundance (log10) at minimum 0.1?
stdout: not met

stdin: Evaluate TCTACCCACTGGGTTCTAACCTGTTGCTGAG [TCTACCCCTCA_LTGcore_AC_RTGcore_CT] (site TCTACCCCTCA) (LTG core: AC, RTG core: CT) : recombinant barcode read abundance (log10) at minimum 0.1?
stdout: not met

* * *

# TEST NAME: recombinant UMI read abundance after kanamycin selection (control-corrected) (log10(CPM+1)); higher = more efficient recombination; extreme values may be limits of the assay; sequences stand for … in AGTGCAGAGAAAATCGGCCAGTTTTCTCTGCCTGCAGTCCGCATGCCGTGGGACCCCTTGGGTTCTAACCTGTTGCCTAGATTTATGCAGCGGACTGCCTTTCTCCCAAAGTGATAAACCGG…AGGTTGGTTTCACT; site = the 11-nt donor
MEASURED METRIC: recombinant UMI read abundance (log10)
Answers are plain numbers.

Some sequences with recorded recombinant UMI read abundance (log10):
| SEQUENCE INPUT | ASSAY RESULT |
| --- | --- |
| ACTCGTGCATGGACCGGTTTTCCCGGTAATCCGTATTTGGT (site ACTCGTGCTAC) | 1.07 |
| GGGACGTCATGGACCGGTTTTCCCGGTAATCCGTATTTGTG (site GGGACGTCTCA) | 2.05 |
| GTTAGAACATGGACCGGTTTTCCCGGTAATCCGTATTTGGT (site GTTAGAACTCC) | 0.0129 |

Hello, I would appreciate it if you could give recombinant UMI read abundance (log10) for each entry below.
1. TTTGCGCCATGGACCGGTTTTCCCGGTAATCCGTATTTGCT (site TTTGCGCCTAG)
2. AGGTTCACATGGACCGGTTTTCCCGGTAATCCGTATTTGTG (site AGGTTCACTCA)

stdout:
0.00475
0.0184

Hello, I would appreciate it if you could give recombinant UMI read abundance (log10) for each entry below.
1. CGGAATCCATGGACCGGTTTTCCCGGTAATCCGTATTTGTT (site CCGGATCCTAA)
2. GTTTGCGCATGGACCGGTTTTCCCGGTAATCCGTATTTGGC (site GTTTGCGCTGC)
3. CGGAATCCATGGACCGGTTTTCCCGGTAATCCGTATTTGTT (site CCGAAACCTAA)
4. GGGAAGACATGGACCGGTTTTCCCGGTAATCCGTATTTGCT (site GGGAAGACTAG)

stdout:
0
2.03
0.0076
1.69

* * *

What recombinant barcode read abundance (log10) was measured for each of the following?
# TEST NAME: recombinant barcode read abundance after kanamycin selection (control-corrected) (log10(CPM+1)); higher = more efficient recombination; sequences stand for … in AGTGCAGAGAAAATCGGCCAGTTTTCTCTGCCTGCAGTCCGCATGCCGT…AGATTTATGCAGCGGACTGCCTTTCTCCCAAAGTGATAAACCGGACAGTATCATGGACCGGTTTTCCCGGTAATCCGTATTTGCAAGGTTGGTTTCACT; site = the 11-nt target
One number for each entry.

| SEQUENCE INPUT | ASSAY RESULT |
| --- | --- |
| GGCTGATCTTGGGTTCTAACCTGTTGCCT (site GGCTGATCTAG) | 0.382 |
| GCACTCTCTTGGGTTCTAACCTGTTGCCT (site GCACTCTCTAG) | 1.58 |
| ACACTGTCTTGGGTTCTAACCTGTTGCGG (site ACACTGTCTCC) | 1.49 |

Hello, I would appreciate it if you could give recombinant barcode read abundance (log10) for each entry below.
1. CAGTTGGCTTGGGTTCTAACCTGTTGCCT (site CAGTTCGCTAG)
2. ACCTGTCCTTGGGTTCTAACCTGTTGCCT (site ACCTGGCCTAG)
3. TTGGGGTCTTGGGTTCTAACCTGTTGCCT (site TTGGGGTCTAG)
4. AGGTAGACTTGGGTTCTAACCTGTTGCTA (site AGGTAGACTTA)
5. ATTTGCACTTGGGTTCTAACCTGTTGCCT (site ATTTGTACTAG)
6. GGATACACTTGGGTTCTAACCTGTTGCCT (site GGTTACACTAG)
7. GCCTCGTCTTGGGTTCTAACCTGTTGCCT (site GCGTCGTCTAG)

stdout:
[0.0864, 0.173, 1.65, 2.44, 0.0454, 0.395, 0.206]

Hello, I would appreciate it if you could give recombinant barcode read abundance (log10) for each entry below.
1. GGGGAAGCTTGGGTTCTAACCTGTTGCCT (site GAGGAAGCTAG)
2. ACGTGCTCTTGGGTTCTAACCTGTTGCCT (site AGGTGCTCTAG)
3. CACGAGTCTTGGGTTCTAACCTGTTGCCT (site CACGAGTCTAG)
4. CTGGGGTCTTGGGTTCTAACCTGTTGCTT (site CTGGGGTCTAA)
5. AGCCACCCTTGGGTTCTAACCTGTTGCCT (site AGCCACGCTAG)
6. GAGGACTCTTGGGTTCTAACCTGTTGCCG (site GAGGACTCTTG)

stdout:
[0.276, 0.119, 1.57, 2.43, 0.265, 0.476]

Hello, I would appreciate it if you could give recombinant barcode read abundance (log10) for each entry below.
1. GCACGCTCTTGGGTTCTAACCTGTTGCCT (site GCACACTCTAG)
2. GATCGATCTTGGGTTCTAACCTGTTGCAT (site GATCGATCTAG)
3. GTAACCTCTTGGGTTCTAACCTGTTGCCT (site GTAACCTCTAG)

stdout:
1. 0.607
2. 0.307
3. 1.92

Hello, I would appreciate it if you could give recombinant barcode read abundance (log10) for each entry below.
1. AAGGGTTCTTGGGTTCTAACCTGTTGCCA (site ACGGGTACTTG)
2. ATGCCTACTTGGGTTCTAACCTGTTGCCT (site ATGCCTACTAG)
3. CTAATTCCTTGGGTTCTAACCTGTTGCAT (site CTAATTCCTAT)
4. CGTAGGACTTGGGTTCTAACCTGTTGCCT (site CGTAGGACTAG)

stdout:
[0.0285, 0.337, 0.252, 0.209]

Hello, I would appreciate it if you could give recombinant barcode read abundance (log10) for each entry below.
1. TCGCTAGCTTGGGTTCTAACCTGTTGCCT (site ACGCTAGCTAG)
2. GAGTGAACTTGGGTTCTAACCTGTTGCCA (site GAGTGAACTTG)
3. CCACTACCTTGGGTTCTAACCTGTTGCCT (site CCACTTCCTAG)
4. CAAAGTCCTTGGGTTCTAACCTGTTGCTT (site CAAAGTCCTAA)

stdout:
1. 0.0632
2. 0.849
3. 0.0936
4. 0.437

Hello, I would appreciate it if you could give recombinant barcode read abundance (log10) for each entry below.
1. CTATCCACTTGGGTTCTAACCTGTTGCCT (site CTATCCACTAG)
2. GGTGGCCCTTGGGTTCTAACCTGTTGCCT (site GTTGGCCCTAG)
3. CGCCTCTCTTGGGTTCTAACCTGTTGCCT (site CGCCTCTCTAG)
4. CACTTAGCTTGGGTTCTAACCTGTTGCCT (site CACTTAGCTAG)
5. GTCATGTCTTGGGTTCTAACCTGTTGCCT (site GCCATGTCTAG)
6. GGTGCTCCTTGGGTTCTAACCTGTTGCAC (site GGTGCTCCTGT)

stdout:
[1.63, 0.296, 0.0707, 0.269, 0.781, 0.684]

Hello, I would appreciate it if you could give recombinant barcode read abundance (log10) for each entry below.
1. GTGGTTCCTTGGGTTCTAACCTGTTGCCT (site GTTGGTCCTAG)
2. CTACCAACTTGGGTTCTAACCTGTTGCCT (site CTACCAGCTAG)
3. GAGGTAACTTGGGTTCTAACCTGTTGCCT (site GATGTAACTAG)

stdout:
0.112
0.124
0.822

Hello, I would appreciate it if you could give recombinant barcode read abundance (log10) for each entry below.
1. CATCATTCTTGGGTTCTAACCTGTTGCCT (site CATGATTCTAG)
2. TACACAGCTTGGGTTCTAACCTGTTGCCT (site TATACAGCTAG)
3. CGTCGACCTTGGGTTCTAACCTGTTGCCT (site TGTCGACCTAG)

stdout:
[0.118, 0.149, 0.194]
